Let's look at some compounds and their measured Emax.
target: APOL1 G1 (Homo sapiens, UniProt O14791, I384M/S342G); test: Trypanosoma brucei brucei Lysis Assay Using APOL1 Recombinant Protein (AlamarBlue viability readout); type: cell-based; settings: Trypanosome Assay; read-out: Trypanosome Assay Max Activity (%)
All answers are understood in %, so give the number only.

These recorded examples may help you get a feel for the data.
compound	quantityUnit	numericResult
C[C@H]1C[C@@]2(C[C@@H](c3cc(C4CCOCC4)[nH]n3)N1)OCCc1cc(Cl)sc12 (stereo in doubt)	%	95
C[C@H]1C[C@@]2(C[C@@H](c3cccn4ccnc34)N1)OCCc1cc(Cl)sc12 (stereo in doubt)	%	101
Cc1ncc([C@@H]2C[C@]3(C[C@H](C)N2)OCCc2cc(Cl)sc23)cn1 (racemic)	%	106
CC1CC2(CC(C(C)C)N1)OCCc1cc(Cl)sc12 (mixture of isomers)	%	109
C[C@H]1C[C@@]2(C[C@@H](c3cccc(C#N)n3)N1)OCCc1cc(Cl)sc12 (racemic)	%	106
CNc1ncc([C@@H]2C[C@]3(C[C@H](C)N2)OCCc2cc(Cl)sc23)cn1 (racemic)	%	102
C[C@H]1C[C@@]2(C[C@@H](c3ccc(O)cn3)N1)OCCc1cc(Cl)sc12 (racemic)	%	116
Cc1ncoc1[C@@H]1C[C@]2(C[C@H](C)N1)OCCc1cc(Cl)sc12 (racemic)	%	95

Could you now look at the following compound, please?
Returns the measured Emax for the input compound. Input: Cc1cc([C@@H]2C[C@]3(C[C@H](C)N2)OCCc2cc(Cl)sc23)ccc1O (racemic)
94.5

====

molecular target: APOL1 (Homo sapiens, UniProt O14791); experiment: Multi-Tox Assay (MultiTox-Fluor Multiplex Cytotoxicity Assay in tet-inducible APOL1 T-REx-HEK293 cells; Table 46 does not say which APOL1 variant G0/G1/G2); conditions: IP50 = IC50 for cell proliferation, APOL1 variant not given
Each entry below lists one item and its recorded IC50 value.

molecule	result
C[C@H]1C[C@@]2(C[C@@H](c3cn(Cc4cccc5c4OCCO5)nn3)N1)OCC(F)(F)c1cc(Cl)sc12 [Compound 310]	50 to 500 nM

Using the record for C[C@H]1C[C@@]2(C[C@@H](c3cn(C)nn3)N1)OC[C@H](O)c1cc(C(F)(F)F)sc12 [Compound 180] , report its IC50.
< 50 nM

Form field: reported IC50 of C[C@H]1C[C@@]2(C[C@@H](c3cnc(NC(C)(C)CO)nc3)N1)OCCc1cc(Cl)sc12 (racemic) [Compound 95]
< 50 nM

Need IC50, item C[C@H]1C[C@@]2(C[C@@H](c3cn(C)nn3)N1)OCCc1cc(Cl)sc12 [Compound 1]
< 50 nM

// returns reported IC50 for input Cc1ccc([C@@H]2C[C@]3(C[C@H](C)N2)OCCc2cc(Cl)sc23)cn1 (racemic) [Compound 55]
< 50 nM

Given CCC(O)Cn1cc([C@@H]2C[C@]3(C[C@H](C)N2)OC[C@@H](O)c2cc(Cl)sc23)nn1 (stereo partly shown) [Compound 284] , state its recorded IC50.
50 to 500 nM

// returns reported IC50 for input CCn1cc(Cn2cc([C@@H]3C[C@]4(C[C@H](C)N3)OC[C@@H](O)c3cc(Cl)sc34)nn2)cn1 [Compound 290]
50 to 500 nM

====

# IC50 per entry
Target: APOL1 G1 (Homo sapiens, UniProt O14791, I384M/S342G)
Sequence (O14791 28-398 S342G/I384M): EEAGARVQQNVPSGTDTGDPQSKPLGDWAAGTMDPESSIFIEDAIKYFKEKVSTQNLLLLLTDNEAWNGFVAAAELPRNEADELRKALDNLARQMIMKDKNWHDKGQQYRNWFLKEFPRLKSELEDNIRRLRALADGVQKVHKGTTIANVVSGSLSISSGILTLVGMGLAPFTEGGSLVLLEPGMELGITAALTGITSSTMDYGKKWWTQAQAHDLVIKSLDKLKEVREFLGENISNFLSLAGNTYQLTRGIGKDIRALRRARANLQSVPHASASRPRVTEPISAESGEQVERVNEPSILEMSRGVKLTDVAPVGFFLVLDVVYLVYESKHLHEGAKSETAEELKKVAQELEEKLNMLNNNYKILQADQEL
Assay: Trypanosoma brucei brucei Lysis Assay Using APOL1 Recombinant Protein (AlamarBlue viability readout)
Assay type: cell-based
Conditions: Trypanosome Assay; IP50 = IC50 for cell proliferation; read-out: Trypanosome Assay IP50
Source text: Trypanosoma brucei brucei is a blood stream parasite to which human, gorillas, and baboons are immune due to the presence of the APOL1 protein in their HDL particles. […] Briefly, the AlamarBlue active compound, resazurin, a blue, water soluble, non-toxic and cell permeable molecule, which can be followed by absorbance, is reduced by various metabolic pathways into resorufin, a red compound which can be followed by either absorbance or fluorescence. […]

# example entries with known answers
compound	targetSystem	IC50
Cc1cc(C2CC3(CC(C)N2)OCCc2cc(Cl)sc23)ncn1 (stereo not shown)	APOL1 G1 (Homo sapiens, UniProt O14791, I384M/S342G)	< 50 nM
C[C@H]1C[C@@]2(C[C@@H](c3ccon3)N1)OCCc1cc(Cl)sc12 (racemic)	APOL1 G1 (Homo sapiens, UniProt O14791, I384M/S342G)	< 50 nM
C[C@H]1C[C@@]2(C[C@@H](c3cc(C(F)(F)F)[nH]n3)N1)OCCc1cc(Cl)sc12 (stereo in doubt)	APOL1 G1 (Homo sapiens, UniProt O14791, I384M/S342G)	50 to 500 nM

Now for a further compound.
Fill blank: measured IC50 of the compound C[C@@H]1CC2(C[C@H](C)N1)OCCc1c2sc(C(F)(F)F)c1CO (single isomer, unassigned) is ____.
50 to 500 nM

====

Target: APOL1 G1 (Homo sapiens, UniProt O14791, I384M/S342G)
Sequence (O14791 28-398 S342G/I384M): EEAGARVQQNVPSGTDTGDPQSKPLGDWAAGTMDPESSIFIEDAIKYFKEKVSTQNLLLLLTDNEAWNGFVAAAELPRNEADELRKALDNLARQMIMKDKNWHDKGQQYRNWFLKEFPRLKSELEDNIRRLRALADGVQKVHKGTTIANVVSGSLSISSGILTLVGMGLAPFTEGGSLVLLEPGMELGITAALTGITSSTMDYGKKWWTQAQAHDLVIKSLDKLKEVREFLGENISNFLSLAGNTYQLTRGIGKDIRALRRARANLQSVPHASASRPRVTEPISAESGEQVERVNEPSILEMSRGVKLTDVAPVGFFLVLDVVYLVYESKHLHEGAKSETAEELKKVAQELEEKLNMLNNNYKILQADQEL
Experiment: Trypanosoma brucei brucei Lysis Assay Using APOL1 Recombinant Protein (AlamarBlue viability readout)
Format: cell-based
Conditions: read-out: Trypanosome Assay Max Activity (%)
assayEndpoint: Emax (%)
A number alone suffices; assume %.

compound	quantityUnit	Emax
CC1CC2(CC(c3cccnc3)N1)OCCc1cc(Cl)sc12 (racemic)	%	116
C[C@@H]1CC2(C[C@H](C)N1)OCCc1cc(Cl)sc12 (single isomer, unassigned)	%	112
C[C@@H]1C[C@]2(C[C@H](C)N1)OCC(O)c1cc(Cl)sc12 (mixture of isomers)	%	106
CC1CC2(CC(C)N1)OCCc1cc(Cl)sc12 (mixture of isomers)	%	117
CC1CC2(CC(c3ccncc3)N1)OCCc1cc(Cl)sc12 (centres unmarked)	%	124
C[C@@H]1CC2(C[C@H](C)N1)OCCc1cc(Br)sc12 (single isomer, unassigned)	%	106

Could you tell me which Emax is on file for CCc1cc2c(s1)C1(C[C@@H](C)N[C@@H](C)C1)OCC2 (single isomer, unassigned) ?
110

// Emax lookup, key: CC(C)c1cc2c(s1)C1(C[C@@H](C)N[C@@H](C)C1)OCC2 (single isomer, unassigned)
98.7

====

molecular target: APOL1 G1 (Homo sapiens, UniProt O14791, I384M/S342G); test: Trypanosoma brucei brucei Lysis Assay Using APOL1 Recombinant Protein (AlamarBlue viability readout); format: cell-based; details: Trypanosome Assay; read-out: Trypanosome Assay Max Activity (%)
The reader will find reported Emax values listed item by item below.
Return type: number; implicit unit %.

For orientation, consider the following solved cases.
compound	Emax [%]
CCc1nc([C@@H]2C[C@]3(C[C@H](C)N2)OCCc2cc(Cl)sc23)c[nH]1 (racemic)	107
C[C@H]1C[C@@]2(C[C@@H](c3cccc4[nH]c(=O)oc34)N1)OCCc1cc(Cl)sc12 (racemic)	90
C[C@H]1C[C@@]2(C[C@@H](c3cccc(S(N)(=O)=O)c3)N1)OCCc1cc(Cl)sc12 (racemic)	93.5

What measured Emax goes with C[C@H]1C[C@@]2(C[C@@H](c3cnc(N4CCN(C)CC4)nc3)N1)OCCc1cc(Cl)sc12 (racemic) ?
88

Which Emax is listed for C[C@H]1C[C@@]2(C[C@@H](c3cnc(C4CC4)nc3)N1)OCCc1cc(Cl)sc12 (racemic) ?
104

GET /values?readout=Emax&item= Cc1cnc([C@@H]2C[C@]3(C[C@H](C)N2)OCCc2cc(Cl)sc23)o1 (racemic)
96.7

Which Emax is listed for C[C@H]1C[C@@]2(C[C@@H](c3ccnn3C)N1)OCCc1cc(Cl)sc12 (racemic) ?
92.7

Consider the compound Cc1ccc([C@@H]2C[C@]3(C[C@H](C)N2)OCCc2cc(Cl)sc23)cn1 (racemic) and give its measured Emax.
112
